Tested on: preferentially upregulated genes in LV, SP, LN
assay_procedure: Z-score-based differential gene expression analysis (adjuvant group- or adjuvant-associated genes, 40 module mapping, TargetMine annotation)
Type: in vivo, C57BL/6 mice
run_conditions: ID, LV, sample x3
Let's look at some compounds and their measured Irf7 1417244_a_at (Group G1, Modules 20).
Simply state the number, no unit and no words.

Worked examples, 3 compounds total:
Nc1nc2c(ncn2[C@@H]2O[C@@H]3COP(=O)(O)O[C@H]4[C@@H](O)[C@H](n5cnc6c(N)ncnc65)O[C@@H]4COP(=O)(O)O[C@@H]2[C@@H]3O)c(=O)[nH]1 [cGAMP, Cyclic [G(2′,5′)pA(3′,5′)p]] = 1.62
Cc1ccc2c(=O)c3cccc(CC(=O)O)c3oc2c1C [DMXAA, 5,6-dimethylxanthenone-4-acetic acid] = 1
Nc1nc2c(ncn2[C@@H]2O[C@@H]3COP(=O)(O)O[C@H]4[C@@H](O)[C@H](n5cnc6c(=O)[nH]c(N)nc65)O[C@@H]4COP(=O)(O)O[C@H]3[C@H]2O)c(=O)[nH]1 [cdiGMP, Cyclic diguanylate monophosphate] = 1.92

// next entry
Item CCOCc1nc2c(N)nc3ccccc3c2n1CC(C)(C)O [R848] has what recorded Irf7 1417244_a_at (Group G1, Modules 20)?
2.37
